# key: entry, value: pIC50
# Study System: Integrin alpha-V/beta-3 (Homo sapiens, UniProt P05106+P06756)
# Sequence (P05106 27-788 limits assumed): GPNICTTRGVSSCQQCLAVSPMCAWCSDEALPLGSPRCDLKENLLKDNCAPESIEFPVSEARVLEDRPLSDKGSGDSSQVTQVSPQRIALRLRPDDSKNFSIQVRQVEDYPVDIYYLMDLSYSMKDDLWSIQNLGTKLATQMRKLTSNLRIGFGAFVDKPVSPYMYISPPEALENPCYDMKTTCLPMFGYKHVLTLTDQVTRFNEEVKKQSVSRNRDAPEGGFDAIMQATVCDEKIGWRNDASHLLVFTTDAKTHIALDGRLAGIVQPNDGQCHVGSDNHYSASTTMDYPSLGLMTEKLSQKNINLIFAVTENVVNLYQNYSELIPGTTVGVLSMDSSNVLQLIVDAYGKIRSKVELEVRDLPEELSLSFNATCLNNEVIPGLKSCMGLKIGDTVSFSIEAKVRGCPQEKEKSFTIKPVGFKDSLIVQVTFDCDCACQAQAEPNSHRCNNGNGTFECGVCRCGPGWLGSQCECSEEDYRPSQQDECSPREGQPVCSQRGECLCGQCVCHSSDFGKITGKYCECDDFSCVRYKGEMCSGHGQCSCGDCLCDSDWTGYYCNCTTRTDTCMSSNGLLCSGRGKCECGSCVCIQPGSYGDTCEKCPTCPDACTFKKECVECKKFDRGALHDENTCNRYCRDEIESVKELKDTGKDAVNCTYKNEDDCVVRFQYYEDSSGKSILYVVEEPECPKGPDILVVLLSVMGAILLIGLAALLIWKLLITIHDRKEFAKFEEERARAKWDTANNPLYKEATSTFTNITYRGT
# Sequence (P06756 31-889 limits assumed): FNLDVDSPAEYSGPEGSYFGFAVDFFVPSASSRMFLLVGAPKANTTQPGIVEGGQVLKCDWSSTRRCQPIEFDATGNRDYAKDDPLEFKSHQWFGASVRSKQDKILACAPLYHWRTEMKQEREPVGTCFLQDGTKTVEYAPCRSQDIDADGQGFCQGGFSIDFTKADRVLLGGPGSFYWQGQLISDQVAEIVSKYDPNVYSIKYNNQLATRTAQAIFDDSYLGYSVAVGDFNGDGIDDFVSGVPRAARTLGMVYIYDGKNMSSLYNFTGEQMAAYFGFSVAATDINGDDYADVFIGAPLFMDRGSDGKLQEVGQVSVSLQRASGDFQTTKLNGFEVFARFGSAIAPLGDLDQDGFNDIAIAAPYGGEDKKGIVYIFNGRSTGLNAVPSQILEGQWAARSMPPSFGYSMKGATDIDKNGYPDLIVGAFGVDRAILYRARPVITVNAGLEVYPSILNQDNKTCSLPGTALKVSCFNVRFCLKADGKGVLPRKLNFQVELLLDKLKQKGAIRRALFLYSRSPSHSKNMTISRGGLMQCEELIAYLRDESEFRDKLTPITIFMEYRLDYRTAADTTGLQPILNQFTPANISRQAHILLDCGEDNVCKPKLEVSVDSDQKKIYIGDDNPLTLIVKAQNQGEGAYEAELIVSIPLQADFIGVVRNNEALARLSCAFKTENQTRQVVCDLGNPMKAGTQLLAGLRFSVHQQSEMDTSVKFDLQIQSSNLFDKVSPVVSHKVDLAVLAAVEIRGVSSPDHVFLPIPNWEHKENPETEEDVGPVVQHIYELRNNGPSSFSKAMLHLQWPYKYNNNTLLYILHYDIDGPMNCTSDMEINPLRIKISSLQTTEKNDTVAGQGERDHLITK
# Sequence (P06756 891-1048 limits assumed): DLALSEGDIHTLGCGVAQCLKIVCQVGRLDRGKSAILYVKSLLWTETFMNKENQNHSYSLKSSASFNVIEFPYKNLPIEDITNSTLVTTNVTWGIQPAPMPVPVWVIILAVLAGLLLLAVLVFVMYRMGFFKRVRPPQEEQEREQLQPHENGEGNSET
# Protocol Notes: Inhibition of alpha v beta 3 receptor binding
# Type: protein-complex assay
pIC50: −log10 of the molar value.
Measured Metric: pIC50

[[record]]
chemical_smiles = "O=C(CCCCc1ccc2c(n1)NCCC2)NC[C@H](NC(=O)c1ccccc1)C(=O)O"
measured_metric = "pIC50"
number = 7.13

[[record]]
chemical_smiles = "O=C(CCCCc1ccc2c(n1)NCCC2)NC[C@H](NC(=O)OCc1ccccc1)C(=O)O"
measured_metric = "pIC50"
number = 8.74

[[record]]
chemical_smiles = "CC1(C)[C@@H]2CC[C@@]1(CS(=O)(=O)N[C@@H](CNC(=O)CCCCc1ccc3c(n1)NCCC3)C(=O)O)C(=O)C2"
measured_metric = "pIC50"
number = 10.00

[[record]]
chemical_smiles = "O=C(CCCCc1ccc2c(n1)NCCC2)NC[C@H](NS(=O)(=O)c1ccccc1)C(=O)O"
measured_metric = "pIC50"
number = 9.52

[[record]]
chemical_smiles = "Cc1ccc(S(=O)(=O)N[C@@H](CNC(=O)CCCCc2ccc3c(n2)NCCC3)C(=O)O)cc1"
measured_metric = "pIC50"
number = 9.40

[[record]]
chemical_smiles = "CCCCS(=O)(=O)N[C@@H](CNC(=O)CCCCc1ccc2c(n1)NCCC2)C(=O)O"
measured_metric = "pIC50"
number = 8.64


* * *

# Protocol Notes: Half life of compound is determined in dogs
# Format: ADME, Canis lupus familiaris
# Condition Description: dog, in vivo
Measured Metric: half-life (min)

[[record]]
chemical_smiles = "O=C(Cc1ccccc1)N[C@@H](CCCCCCCc1ccc2c(n1)NCCC2)C(=O)O"
number = 1150


* * *

# Study System: Integrin alpha-V/beta-3 (Homo sapiens, UniProt P05106+P06756)
# Protocol Notes: Inhibition of binding to alpha v beta 3 receptor
# Format: protein-complex assay
pIC50: −log10 of the molar value.
Label MET when pIC50 is at or above 8; otherwise label NOT MET.

[[record]]
chemical_smiles = "O=C(NCc1ccccc1)N[C@@H](CCCCCCCc1ccc2c(n1)NCCC2)C(=O)O"
label_class = "MET"

[[record]]
chemical_smiles = "CCCCS(=O)(=O)N[C@@H](CCCCCCCc1ccc2c(n1)NCCC2)C(=O)O"
label_class = "NOT MET"

[[record]]
chemical_smiles = "CC1(C)[C@@H]2CC[C@@]1(CS(=O)(=O)N[C@@H](CCCCCCCc1ccc3c(n1)NCCC3)C(=O)O)C(=O)C2"
label_class = "MET"

[[record]]
chemical_smiles = "O=C(O)[C@H](CCCCCCCc1ccc2c(n1)NCCC2)NS(=O)(=O)C1CCCCC1"
label_class = "NOT MET"

[[record]]
chemical_smiles = "O=C(Cc1ccccc1)N[C@@H](CCCCCCCc1ccc2c(n1)NCCC2)C(=O)O"
label_class = "NOT MET"

[[record]]
chemical_smiles = "O=C(O)[C@H](CCCCCCCc1ccc2c(n1)NCCC2)NS(=O)(=O)Cc1ccccc1"
label_class = "NOT MET"

[[record]]
chemical_smiles = "O=C(N[C@@H](CCCCCCCc1ccc2c(n1)NCCC2)C(=O)O)c1ccccc1"
label_class = "NOT MET"

